# System: KM20L2 colon
# MEASUREMENT_NOTES: NCI tumour cell line growth inhibition, 48 h
REPORTED_PROPERTY: TGI (µM)
Write the answer as a number in µM, unit excluded.

Given the entry CCCCOP1(=O)C=CC(Cl)=C(C)C1 (stereo not given) , what TGI was observed with KM20L2 colon?
49.5

Given the entry BrC(Br)([P+](c1ccccc1)(c1ccccc1)c1ccccc1)[P+](c1ccccc1)(c1ccccc1)c1ccccc1 , what TGI was observed with KM20L2 colon?
86.2

Given the entry O=C1c2c(O)ccc(O)c2C(=O)c2c(NCCNCCO)ccc(NCCNCCO)c21 , what TGI was observed with KM20L2 colon?
8.09

Given the entry O=C1CN(c2ccccc2)C(=O)C1C(=O)Nc1ccc(Cl)c(Cl)c1 (stereo not given) , what TGI was observed with KM20L2 colon?
16.8

Recorded values, source PubChem BioAssay (NCI).
